- target: recombinant cynomolgus CD33 protein (NovoProtein) (cynomolgus)
- Sequence (chain, as listed by the source limits assumed): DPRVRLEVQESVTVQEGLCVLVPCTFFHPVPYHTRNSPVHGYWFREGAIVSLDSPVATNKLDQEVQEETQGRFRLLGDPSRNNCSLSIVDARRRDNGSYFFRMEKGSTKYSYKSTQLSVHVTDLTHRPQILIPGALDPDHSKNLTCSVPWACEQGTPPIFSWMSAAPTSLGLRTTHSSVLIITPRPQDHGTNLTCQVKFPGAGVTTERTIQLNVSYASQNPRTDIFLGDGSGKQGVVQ
- test protocol: ELISA, plate coated with recombinant CD33
// reported Relative maximal binding (cyno/human) for each item listed
Just the number, please, no unit after it.

# annotated cases, reported Relative maximal binding (cyno/human) shown
anti-CD33 antibody 6C7H35 (antibody, V domains shown) VH: EVQLVESGGGLVQPGGSLRLSCAASGFTFSEYAMLWVRQAPGKGLEWVGEIRLKSNNYVTNYAASVKGRFTISRDDSKNSVYLQMNSLKTEDTGVYYCTRAGYYVPFTYWGQGTLVTVSS VL: QPVLTQSPSASASLGASVKLTCTLSSQHSTYTIEWYQQQPEKGPRYLMELKKEGSHSTGDGIPDRFSGSSSGAERYLTISSLQSEDEADYYCGVGVTIKEQFVYVFGGGTKLTVL | 0.04
anti-CD33 antibody 6C7H39 (antibody, V domains shown) VH: EVQLVESGGGLVQPGGSLRLSCAASGFTFSEYDMLWVRQAPGKGLEWVGEIRLKSNNYVTNYAASVKGRFTISRDDTKNSVYLQMNSLKTEDTGVYYCTRAGYYVPFAYWGQGTLVTVSS VL: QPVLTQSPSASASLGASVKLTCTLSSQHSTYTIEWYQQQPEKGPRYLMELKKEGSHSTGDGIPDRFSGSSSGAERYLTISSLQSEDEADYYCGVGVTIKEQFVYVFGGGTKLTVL | 0.02

Now examine the next entry.
Would you kindly share the measured Relative maximal binding (cyno/human) for anti-CD33 antibody 6C7H32 (antibody, V domains shown) VH: EVQLVESGGGLVQPGGSLRLSCAASGSTFSEYDMLWVRQAPGKGLEWVGEIRLKSNNYVTNYAASVKGRFTISRDDSKNSVYLQMNSLKTEDTGVYYCTRAGYYVPFAYWGQGTLVTVSS VL: QLMLTQSPSASASLGASVKLTCTLSSQHSTYTIEWYQQQPGKGPRYLMELKKEGSHSTGDGIPDRFSGSSSGAERYLTISSLQSEDEADYYCGVGHTIKEQFVYEFGGGTKLTVL ?
0.01
